For each of the molecules below, state its Ki.
subject of test: endopeptidase 24-15 (Rattus norvegicus, UniProt P24155)
Sequence (P24155 whole entry): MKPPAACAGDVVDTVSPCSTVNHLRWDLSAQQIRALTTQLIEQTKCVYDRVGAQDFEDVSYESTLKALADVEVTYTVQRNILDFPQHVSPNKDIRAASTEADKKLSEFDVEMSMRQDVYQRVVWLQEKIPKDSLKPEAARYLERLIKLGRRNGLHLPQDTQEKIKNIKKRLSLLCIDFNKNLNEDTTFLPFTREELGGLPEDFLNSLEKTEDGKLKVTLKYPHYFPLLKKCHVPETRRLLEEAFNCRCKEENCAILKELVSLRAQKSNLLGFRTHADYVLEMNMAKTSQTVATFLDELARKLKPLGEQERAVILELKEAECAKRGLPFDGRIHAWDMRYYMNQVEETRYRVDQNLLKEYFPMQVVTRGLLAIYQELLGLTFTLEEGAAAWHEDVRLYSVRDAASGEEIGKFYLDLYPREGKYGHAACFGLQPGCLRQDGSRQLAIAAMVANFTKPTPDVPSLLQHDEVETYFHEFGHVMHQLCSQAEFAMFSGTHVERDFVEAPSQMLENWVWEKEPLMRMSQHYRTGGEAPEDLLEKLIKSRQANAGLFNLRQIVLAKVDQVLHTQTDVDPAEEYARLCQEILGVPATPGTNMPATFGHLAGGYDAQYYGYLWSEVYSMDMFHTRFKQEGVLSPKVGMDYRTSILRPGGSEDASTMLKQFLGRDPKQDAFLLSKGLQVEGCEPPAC
assay protocol: Inhibition of neurotensin degradation by purified endopeptidase 24-15 (HPLC), inhibition constant Ki
Record the result as a number with its unit.

State measured Ki of the molecule N=C(N)NCCC[C@H](NC(=O)CCP(=O)(O)C(Cc1ccccc1)NC(=O)OCc1ccccc1)C(=O)N[C@@H](CC(=O)O)C(=O)O (mixture of isomers) with endopeptidase 24-15 (Rattus norvegicus, UniProt P24155).
0.352 µM

# assay system endopeptidase 24-15 (Rattus norvegicus, UniProt P24155): give Ki of CC(CP(=O)(O)C(Cc1ccccc1)NC(=O)OCc1ccccc1)C(=O)N[C@@H](CCCCN)C(=O)N[C@@H](CCCNC(=N)N)C(=O)O (mixture of isomers)
0.00317 µM

Give Ki only, for CC(CP(=O)(O)C(Cc1ccccc1)NC(=O)OCc1ccccc1)C(=O)N[C@@H](CCCCN)C(=O)N[C@@H](Cc1c[nH]c2ccccc12)C(=O)O (mixture of isomers) , using endopeptidase 24-15 (Rattus norvegicus, UniProt P24155) data.
0.00578 µM

Give Ki for CC(CP(=O)(O)C(Cc1ccccc1)NC(=O)OCc1ccccc1)C(=O)N[C@@H](CCCCN)C(=O)N[C@@H](CC(=O)O)C(=O)O (mixture of isomers) tested on endopeptidase 24-15 (Rattus norvegicus, UniProt P24155).
0.109 µM

Values were extracted from patent US5776903A.
